Molecular target: Dihydrofolate reductase (Bos taurus, UniProt P00376)
Sequence (P00376 whole entry): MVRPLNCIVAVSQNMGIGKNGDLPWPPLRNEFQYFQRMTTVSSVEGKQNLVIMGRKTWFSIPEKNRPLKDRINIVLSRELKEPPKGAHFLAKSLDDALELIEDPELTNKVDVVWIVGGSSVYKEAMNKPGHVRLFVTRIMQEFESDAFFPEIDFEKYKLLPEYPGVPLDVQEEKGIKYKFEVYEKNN
Binary call on IC50 with cut-off 8 µM: strictly below means Y, and equality or higher means N.

{"columns": ["test_smiles", "study_target", "answer_label"],
 "data": [
  ["COc1ccc(-n2c(SCC(=O)NNC(=S)c3ccc(Cl)cc3)nc3ccc(Cl)cc3c2=O)cc1", "Dihydrofolate reductase (Bos taurus, UniProt P00376)", "Y"],
  ["CCOC(=O)CSc1nc2cc(OC)c(OC)cc2c(=O)n1-c1ccc(OC)cc1", "Dihydrofolate reductase (Bos taurus, UniProt P00376)", "N"],
  ["COc1ccc(-n2c(SCC(=O)NN)nc3ccc(Cl)cc3c2=O)cc1", "Dihydrofolate reductase (Bos taurus, UniProt P00376)", "Y"],
  ["COc1ccc(-n2c(=S)[nH]c3cc(OC)c(OC)cc3c2=O)cc1", "Dihydrofolate reductase (Bos taurus, UniProt P00376)", "N"],
  ["COc1ccc(-n2c(=S)[nH]c3ccc(Cl)cc3c2=O)cc1", "Dihydrofolate reductase (Bos taurus, UniProt P00376)", "N"],
  ["COc1ccc(C(=S)NNC(=O)CSc2nc3cc(OC)c(OC)cc3c(=O)n2-c2ccc(OC)cc2)cc1", "Dihydrofolate reductase (Bos taurus, UniProt P00376)", "Y"]
]}
